Test system: Plasmodium falciparum
Method Notes: Antiplasmodial activity against erythrocyte stage of Plasmodium falciparum W2 assessed as growth inhibition after 48 hrs by flow cytometry
Type: functional, organism-based
Cond: W2, 48 h
pIC50: −log10 of the molar value.
Value Type: pIC50

Consider the following illustrative entries.
COc1cc(NC(C)CCCNC(=O)/C=C/c2ccc(F)cc2)c2ncccc2c1 (centres undefined)
≤ 5.00
COc1cc(NC(C)CCCNC(=O)/C=C/c2ccc(Br)cc2)c2ncccc2c1 (centres undefined)
≤ 5.00
COc1cc(NC(C)CCCNC(=O)/C=C/c2ccccc2[N+](=O)[O-])c2ncccc2c1 (centres undefined)
≤ 5.00
COc1cc(NC(C)CCCNC(=O)/C=C/c2ccccc2)c2ncccc2c1 (centres undefined)
≤ 5.00
C[C@@H]1CC[C@H]2[C@@H](C)C(=O)O[C@@H]3O[C@@]4(C)CC[C@@H]1[C@]32OO4
8.25

# input for lookup
Prompt: Tell me the measured pIC50 of COc1cc(NC(C)CCCNC(=O)/C=C/c2cccc([N+](=O)[O-])c2)c2ncccc2c1 (centres undefined) , please.
Completion: ≤ 5.00
